All values here come from paper PMC4608253.

Record form. Attribute: half-life. Fill in for each entry.
- Run Description: in vivo
- Assay type: in vivo, A/J mice
- Condition Parameters: male, A/J, mouse, whole blood, po, 500 mg/kg
One number for each entry, in h.

Recorded results for 2 compounds are shown here.
O=C(O)[C@H]1O[C@@H](Oc2cc3oc(-c4ccccc4)cc(=O)c3c(O)c2O)[C@H](O)[C@@H](O)[C@@H]1O	3.11
CC(C)=CCC[C@](C)(O[C@@H]1O[C@H](CO)[C@@H](O)[C@H](O)[C@H]1O)[C@H]1CC[C@]2(C)[C@@H]1[C@H](O)C[C@@H]1[C@@]3(C)CC[C@H](O)C(C)(C)[C@@H]3[C@@H](O[C@@H]3O[C@H](CO)[C@@H](O)[C@H](O)[C@H]3O[C@@H]3O[C@@H](C)[C@H](O)[C@@H](O)[C@H]3O)C[C@]12C [Re, ginsenoside Re]	2.72

What measured half-life goes with O=c1cc(-c2ccccc2)oc2cc(O)c(O)c(O)c12 ?
6.85

###

- Format: physicochemical, mice
- Condition Parameters: stability, extracted QC sample in auto-sampler, spiked concentration 500
Response key: Satisfied means Accuracy (RE, %) 4°C for 24 h >= 10%; Not satisfied means Accuracy (RE, %) 4°C for 24 h < 10%.

O=C(O)[C@H]1O[C@@H](Oc2cc3oc(-c4ccccc4)cc(=O)c3c(O)c2O)[C@H](O)[C@@H](O)[C@@H]1O	Not satisfied
O=C1C[C@@H](c2ccc(O[C@@H]3O[C@H](CO)[C@@H](O)[C@H](O)[C@H]3O)cc2)Oc2cc(O)ccc21	Satisfied
COc1cc(CCC(C)=O)ccc1O	Satisfied

Now consider a different molecule.
// inclusive: Accuracy (RE, %) 4°C for 24 h at least 10%? input: CC1(C)[C@@H](O)CC[C@]2(C)[C@H]3C(=O)C=C4[C@@H]5C[C@@](C)(C(=O)O)CC[C@]5(C)CC[C@@]4(C)[C@]3(C)CC[C@@H]12
Satisfied

###

- Type: physicochemical, mice
- Condition Parameters: stability in mice plasma/blood QC sample, −80°C, spiked concentration 62.5
Measured Parameter: Accuracy (RE, %) Frozen for 30 days
Give bare numbers, in %.

See these solved cases before continuing.
O=c1c(O)c(-c2ccc(O)c(O)c2)oc2cc(O)cc(O)c12	4.8
CC(C)=CCC[C@](C)(O[C@@H]1O[C@H](CO)[C@@H](O)[C@H](O)[C@H]1O)[C@H]1CC[C@]2(C)[C@@H]1[C@H](O)C[C@@H]1[C@@]3(C)CC[C@H](O[C@@H]4O[C@H](CO)[C@@H](O)[C@H](O)[C@H]4O[C@@H]4O[C@H](CO)[C@@H](O)[C@H](O)[C@H]4O)C(C)(C)[C@@H]3CC[C@]12C [Rd, Ginsenoside Rd]	11.4
CC(C)=CCC[C@](C)(O[C@@H]1O[C@H](CO)[C@@H](O)[C@H](O)[C@H]1O)[C@H]1CC[C@]2(C)[C@@H]1[C@H](O)C[C@@H]1[C@@]3(C)CC[C@H](O)C(C)(C)[C@@H]3[C@@H](O[C@@H]3O[C@H](CO)[C@@H](O)[C@H](O)[C@H]3O)C[C@]12C [Rg1, ginsenoside Rg1]	9.2

Please give the measured Accuracy (RE, %) Frozen for 30 days for this compound: COc1c(O[C@@H]2O[C@H](C(=O)O)[C@@H](O)[C@H](O)[C@H]2O)cc(O)c2c(=O)cc(-c3ccccc3)oc12 [Wogonoside, wogonoside]
10.1
